Test system: MS2 coat protein
Test: apparent KD of MS2 coat protein; designed switch direction (-1 OFF switch, 1 ON switch): -1; higher = weaker reporter binding
Settings: input ligand: none
Reported apparent KD of MS2 coat protein by item:
Kindly answer with a numeric value in nM, unit omitted.

Task item: State, in one line, measured apparent KD of MS2 coat protein of CCUCUACAUGAGGAUCACCCAUGUGAGGAUAUCAGUGCAAAGGGCACGUAUUAAAACGUGAGAAGGCACAUGGG [EX1 A.17] (Eterna round: R97, puzzle: Exclusion 1)
Reply: 135

Task item: Query apparent KD of MS2 coat protein for UAACUUCUUGUAAGGAUAUCGGCGCGAAAGCGCAACGAGAAGGUACAUGAGGAUCACCCAUGUGAAAUAAGAAU [Mod of Zala 12 - Jieux - Brourd's Mod of Exclusion 4] (Eterna round: R97, puzzle: Brourd's mod of Exclusion 4)
Reply: 28.3
